# target-or-system: BTK kinase (Homo sapiens, UniProt Q06187)
# Sequence (Q06187 whole entry): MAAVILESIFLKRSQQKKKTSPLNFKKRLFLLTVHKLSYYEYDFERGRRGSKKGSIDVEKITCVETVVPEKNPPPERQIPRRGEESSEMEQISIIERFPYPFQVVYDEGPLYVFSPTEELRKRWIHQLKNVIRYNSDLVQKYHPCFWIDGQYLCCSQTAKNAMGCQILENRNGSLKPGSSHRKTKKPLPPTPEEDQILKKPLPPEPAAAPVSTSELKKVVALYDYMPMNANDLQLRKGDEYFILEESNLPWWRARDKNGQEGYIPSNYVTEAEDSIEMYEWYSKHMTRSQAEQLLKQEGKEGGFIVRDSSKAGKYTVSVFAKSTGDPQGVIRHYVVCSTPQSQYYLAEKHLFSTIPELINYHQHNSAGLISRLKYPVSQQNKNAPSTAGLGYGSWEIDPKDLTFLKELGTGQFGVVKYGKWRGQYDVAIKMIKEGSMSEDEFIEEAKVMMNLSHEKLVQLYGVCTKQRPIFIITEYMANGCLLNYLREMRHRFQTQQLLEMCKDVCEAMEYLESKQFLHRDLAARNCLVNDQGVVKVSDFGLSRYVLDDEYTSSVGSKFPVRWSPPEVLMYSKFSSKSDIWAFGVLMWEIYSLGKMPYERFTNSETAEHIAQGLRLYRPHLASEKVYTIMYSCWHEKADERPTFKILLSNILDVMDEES
pIC50: −log10 of the molar value.
Recorded measurements of pIC50, one per entry

- compound: "COc1ccc(F)cc1C(=O)NCc1ccc(-c2nn(C3CCC(CO)OC3)c3ncnc(N)c23)cc1 (single isomer, unassigned)"
  pIC50: "≥ 8.00"
- compound: "COc1ccc(F)cc1C(=O)NCc1ccc(-c2cc(C3CCC(CO)OC3)n3ncnc(N)c23)cc1 (single isomer, unassigned) [Example 59]"
  pIC50: "7.30 to 8.00"
- compound: "COc1ccc(F)cc1C(=O)NCc1ccc(-c2nn(C3CCC(O)C3)c3ncnc(N)c23)cc1 (single isomer, unassigned) [Example 33]"
  pIC50: "≥ 8.00"

Record request: pIC50 value, item COc1ccc(F)cc1C(=O)NCc1ccc(-c2nn(C3CCCC(O)C3)c3ncnc(N)c23)cc1 (stereo not shown) [Example 4]
≥ 8.00
